Conditions: in n-propanol, 309.75 K
MEASURED_ENDPOINT: solubility (mole fraction)

Lookup: I'd like to know its solubility (mole fraction). The compound in question is "CCO.C[C@H]1c2cccc(O)c2C(O)=C2C(=O)[C@]3(O)C(O)=C(C(N)=O)C(=O)[C@@H](N(C)C)[C@@H]3[C@@H](O)[C@@H]21.C[C@H]1c2cccc(O)c2C(O)=C2C(=O)[C@]3(O)C(O)=C(C(N)=O)C(=O)[C@@H](N(C)C)[C@@H]3[C@@H](O)[C@@H]21.Cl.Cl.O"
Found: 0.00222

----------
Conditions: in ethanol, 312.95 K
MEASURED_ENDPOINT: solubility (mole fraction)
I only need the number, thanks.

Lookup: I'd like to know its solubility (mole fraction). The compound in question is "CCO.C[C@H]1c2cccc(O)c2C(O)=C2C(=O)[C@]3(O)C(O)=C(C(N)=O)C(=O)[C@@H](N(C)C)[C@@H]3[C@@H](O)[C@@H]21.C[C@H]1c2cccc(O)c2C(O)=C2C(=O)[C@]3(O)C(O)=C(C(N)=O)C(=O)[C@@H](N(C)C)[C@@H]3[C@@H](O)[C@@H]21.Cl.Cl.O"
Found: 0.00409

----------
Settings: in ethanol, 302.85 K
MEASURED_ENDPOINT: solubility (mole fraction)
I only need the number, thanks.

Lookup: I'd like to know its solubility (mole fraction). The molecule in question is "CCO.C[C@H]1c2cccc(O)c2C(O)=C2C(=O)[C@]3(O)C(O)=C(C(N)=O)C(=O)[C@@H](N(C)C)[C@@H]3[C@@H](O)[C@@H]21.C[C@H]1c2cccc(O)c2C(O)=C2C(=O)[C@]3(O)C(O)=C(C(N)=O)C(=O)[C@@H](N(C)C)[C@@H]3[C@@H](O)[C@@H]21.Cl.Cl.O"
Found: 0.00327

----------
Details: in water, 313.25 K
MEASURED_ENDPOINT: solubility (mole fraction)
I only need the number, thanks.

Lookup: I'd like to know its solubility (mole fraction). The compound in question is "CCO.C[C@H]1c2cccc(O)c2C(O)=C2C(=O)[C@]3(O)C(O)=C(C(N)=O)C(=O)[C@@H](N(C)C)[C@@H]3[C@@H](O)[C@@H]21.C[C@H]1c2cccc(O)c2C(O)=C2C(=O)[C@]3(O)C(O)=C(C(N)=O)C(=O)[C@@H](N(C)C)[C@@H]3[C@@H](O)[C@@H]21.Cl.Cl.O"
Found: 0.00405

----------
Conditions: in ethanol, 283.15 K
MEASURED_ENDPOINT: solubility (mole fraction)
I only need the number, thanks.

Lookup: I'd like to know its solubility (mole fraction). The compound in question is "CCO.C[C@H]1c2cccc(O)c2C(O)=C2C(=O)[C@]3(O)C(O)=C(C(N)=O)C(=O)[C@@H](N(C)C)[C@@H]3[C@@H](O)[C@@H]21.C[C@H]1c2cccc(O)c2C(O)=C2C(=O)[C@]3(O)C(O)=C(C(N)=O)C(=O)[C@@H](N(C)C)[C@@H]3[C@@H](O)[C@@H]21.Cl.Cl.O"
Found: 0.00222

----------
Conditions: in ethanol, 318.15 K
MEASURED_ENDPOINT: solubility (mole fraction)
I only need the number, thanks.

Lookup: I'd like to know its solubility (mole fraction). The compound in question is "CCO.C[C@H]1c2cccc(O)c2C(O)=C2C(=O)[C@]3(O)C(O)=C(C(N)=O)C(=O)[C@@H](N(C)C)[C@@H]3[C@@H](O)[C@@H]21.C[C@H]1c2cccc(O)c2C(O)=C2C(=O)[C@]3(O)C(O)=C(C(N)=O)C(=O)[C@@H](N(C)C)[C@@H]3[C@@H](O)[C@@H]21.Cl.Cl.O"
Found: 0.0047

----------
Details: in methanol, 312.95 K
MEASURED_ENDPOINT: solubility (mole fraction)
I only need the number, thanks.

Lookup: I'd like to know its solubility (mole fraction). The molecule in question is "CCO.C[C@H]1c2cccc(O)c2C(O)=C2C(=O)[C@]3(O)C(O)=C(C(N)=O)C(=O)[C@@H](N(C)C)[C@@H]3[C@@H](O)[C@@H]21.C[C@H]1c2cccc(O)c2C(O)=C2C(=O)[C@]3(O)C(O)=C(C(N)=O)C(=O)[C@@H](N(C)C)[C@@H]3[C@@H](O)[C@@H]21.Cl.Cl.O"
Found: 0.0332

----------
Conditions: in methanol, 293.15 K
MEASURED_ENDPOINT: solubility (mole fraction)
I only need the number, thanks.

Lookup: I'd like to know its solubility (mole fraction). The compound in question is "CCO.C[C@H]1c2cccc(O)c2C(O)=C2C(=O)[C@]3(O)C(O)=C(C(N)=O)C(=O)[C@@H](N(C)C)[C@@H]3[C@@H](O)[C@@H]21.C[C@H]1c2cccc(O)c2C(O)=C2C(=O)[C@]3(O)C(O)=C(C(N)=O)C(=O)[C@@H](N(C)C)[C@@H]3[C@@H](O)[C@@H]21.Cl.Cl.O"
Found: 0.0174

----------
Conditions: in n-propanol, 278.15 K
MEASURED_ENDPOINT: solubility (mole fraction)

Lookup: I'd like to know its solubility (mole fraction). The compound in question is "CCO.C[C@H]1c2cccc(O)c2C(O)=C2C(=O)[C@]3(O)C(O)=C(C(N)=O)C(=O)[C@@H](N(C)C)[C@@H]3[C@@H](O)[C@@H]21.C[C@H]1c2cccc(O)c2C(O)=C2C(=O)[C@]3(O)C(O)=C(C(N)=O)C(=O)[C@@H](N(C)C)[C@@H]3[C@@H](O)[C@@H]21.Cl.Cl.O"
Found: 0.000862

----------
Settings: in n-propanol, 316.65 K
MEASURED_ENDPOINT: solubility (mole fraction)
I only need the number, thanks.

Lookup: I'd like to know its solubility (mole fraction). The compound in question is "CCO.C[C@H]1c2cccc(O)c2C(O)=C2C(=O)[C@]3(O)C(O)=C(C(N)=O)C(=O)[C@@H](N(C)C)[C@@H]3[C@@H](O)[C@@H]21.C[C@H]1c2cccc(O)c2C(O)=C2C(=O)[C@]3(O)C(O)=C(C(N)=O)C(=O)[C@@H](N(C)C)[C@@H]3[C@@H](O)[C@@H]21.Cl.Cl.O"
Found: 0.00273

----------
Details: in n-propanol, 288.15 K
MEASURED_ENDPOINT: solubility (mole fraction)
I only need the number, thanks.

Lookup: I'd like to know its solubility (mole fraction). The compound in question is "CCO.C[C@H]1c2cccc(O)c2C(O)=C2C(=O)[C@]3(O)C(O)=C(C(N)=O)C(=O)[C@@H](N(C)C)[C@@H]3[C@@H](O)[C@@H]21.C[C@H]1c2cccc(O)c2C(O)=C2C(=O)[C@]3(O)C(O)=C(C(N)=O)C(=O)[C@@H](N(C)C)[C@@H]3[C@@H](O)[C@@H]21.Cl.Cl.O"
Found: 0.00111

----------
Conditions: in water, 317.85 K
MEASURED_ENDPOINT: solubility (mole fraction)
I only need the number, thanks.

Lookup: I'd like to know its solubility (mole fraction). The compound in question is "CCO.C[C@H]1c2cccc(O)c2C(O)=C2C(=O)[C@]3(O)C(O)=C(C(N)=O)C(=O)[C@@H](N(C)C)[C@@H]3[C@@H](O)[C@@H]21.C[C@H]1c2cccc(O)c2C(O)=C2C(=O)[C@]3(O)C(O)=C(C(N)=O)C(=O)[C@@H](N(C)C)[C@@H]3[C@@H](O)[C@@H]21.Cl.Cl.O"
Found: 0.00534

----------
Settings: in ethanol, 323.05 K
MEASURED_ENDPOINT: solubility (mole fraction)
I only need the number, thanks.

Lookup: I'd like to know its solubility (mole fraction). The compound in question is "CCO.C[C@H]1c2cccc(O)c2C(O)=C2C(=O)[C@]3(O)C(O)=C(C(N)=O)C(=O)[C@@H](N(C)C)[C@@H]3[C@@H](O)[C@@H]21.C[C@H]1c2cccc(O)c2C(O)=C2C(=O)[C@]3(O)C(O)=C(C(N)=O)C(=O)[C@@H](N(C)C)[C@@H]3[C@@H](O)[C@@H]21.Cl.Cl.O"
Found: 0.00522

----------
Details: in water, 283.05 K
MEASURED_ENDPOINT: solubility (mole fraction)
I only need the number, thanks.

Lookup: I'd like to know its solubility (mole fraction). The molecule in question is "CCO.C[C@H]1c2cccc(O)c2C(O)=C2C(=O)[C@]3(O)C(O)=C(C(N)=O)C(=O)[C@@H](N(C)C)[C@@H]3[C@@H](O)[C@@H]21.C[C@H]1c2cccc(O)c2C(O)=C2C(=O)[C@]3(O)C(O)=C(C(N)=O)C(=O)[C@@H](N(C)C)[C@@H]3[C@@H](O)[C@@H]21.Cl.Cl.O"
Found: 0.00132

----------
Details: in methanol, 323.05 K
MEASURED_ENDPOINT: solubility (mole fraction)

Lookup: I'd like to know its solubility (mole fraction). The compound in question is "CCO.C[C@H]1c2cccc(O)c2C(O)=C2C(=O)[C@]3(O)C(O)=C(C(N)=O)C(=O)[C@@H](N(C)C)[C@@H]3[C@@H](O)[C@@H]21.C[C@H]1c2cccc(O)c2C(O)=C2C(=O)[C@]3(O)C(O)=C(C(N)=O)C(=O)[C@@H](N(C)C)[C@@H]3[C@@H](O)[C@@H]21.Cl.Cl.O"
Found: 0.044
